B1: PTPRD (parent)
chain: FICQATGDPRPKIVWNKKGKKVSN

# Variants of: B1
# test_details: protein stability index of a GFP-peptide fusion (GPS, HEK-293T) (PSI 1-6); higher = more stable;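 further: lentivirally expressed fusions sorted by FACS into six bins by GFP to DsRed ratio, PSI derived from sequencing read proportions per bin multiplied by bin number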
# setup_conditions: c terminus: a fixed tail appended
Some variants, each annotated with its measured protein stability index.

mutant_designation | protein stability index
P9V | 2.27
K17A | 1.37
G7V | 1.81
C3T | 1.98
G7D | 1.93
K20G | 1.79
S23D | 2.52
W15N | 2.53
P9C | 1.49
F1I | 2.35
P11M | 1.03
P11Q | 2.19
N16T | 1.91
F1P | 3.76
N24P | 2.31
K20I | 1.88
G19S | 1.7
I13Y | 1.86
W15C | 2.57
